Property: secretion of TNF-α in mouse macrophage J774A.1 cells; scope: individual binders
# experimentalSystem: T1, human WARS1 recombinant protein (human, UniProt P23381 2-471, limits assumed)
# T1 sequence: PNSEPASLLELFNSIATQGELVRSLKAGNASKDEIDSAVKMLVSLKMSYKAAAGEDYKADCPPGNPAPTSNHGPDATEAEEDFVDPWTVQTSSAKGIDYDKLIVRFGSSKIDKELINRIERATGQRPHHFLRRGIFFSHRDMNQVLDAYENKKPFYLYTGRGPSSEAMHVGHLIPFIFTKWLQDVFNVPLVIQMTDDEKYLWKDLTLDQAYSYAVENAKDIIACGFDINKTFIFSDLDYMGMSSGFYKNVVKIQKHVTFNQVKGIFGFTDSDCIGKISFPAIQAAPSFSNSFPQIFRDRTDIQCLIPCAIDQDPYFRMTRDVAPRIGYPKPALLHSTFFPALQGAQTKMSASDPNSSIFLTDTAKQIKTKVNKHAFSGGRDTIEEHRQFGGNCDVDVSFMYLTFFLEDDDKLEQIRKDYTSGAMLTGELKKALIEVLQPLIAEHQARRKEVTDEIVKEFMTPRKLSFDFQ
# protocolText: cell-based or functional assay
propertyMeasured: secretion of TNF-α in mouse macrophage J774A.1 cells

>>> result("S53Q (antibody, V domains shown, L-CDR2 variant of GKB101; also called S53Q antibody) VH: EVQLLESGGGLVQPGGSLRLSCAASGFTFSSYDMSWVRQAPGKGLEWVSAISSGGSSIYYADSVKGRFTISRDNSKNTLYLQMNSLRAEDTAVYYCARDVAWDMLGDFDYWGQGTLVTVSS VL: QSVLTQPPSASGTPGQRVTISCTGSSSNIGSNYVYWYQQLPGTAPKLLIYANQHRPSGVPDRFSGSKSGTSASLAISGLRSEDEADYYCGAWDDSLSAYVFGGGTKLTVLT")
"≥ 40%"
>>> result("S53L (antibody, V domains shown, L-CDR2 variant of GKB101; also called S53L antibody) VH: EVQLLESGGGLVQPGGSLRLSCAASGFTFSSYDMSWVRQAPGKGLEWVSAISSGGSSIYYADSVKGRFTISRDNSKNTLYLQMNSLRAEDTAVYYCARDVAWDMLGDFDYWGQGTLVTVSS VL: QSVLTQPPSASGTPGQRVTISCTGSSSNIGSNYVYWYQQLPGTAPKLLIYANLHRPSGVPDRFSGSKSGTSASLAISGLRSEDEADYYCGAWDDSLSAYVFGGGTKLTVLT")
"≥ 40%"
